Every entry's value here was drawn from paper PMC11696143.

- Target Or Test System: T1, FBF-2 RBD;LST-1 19-98 (Caenorhabditis elegans;Caenorhabditis …, UniProt Q09312;P91820 164-575;19-98, |)
- T1 sequence 1: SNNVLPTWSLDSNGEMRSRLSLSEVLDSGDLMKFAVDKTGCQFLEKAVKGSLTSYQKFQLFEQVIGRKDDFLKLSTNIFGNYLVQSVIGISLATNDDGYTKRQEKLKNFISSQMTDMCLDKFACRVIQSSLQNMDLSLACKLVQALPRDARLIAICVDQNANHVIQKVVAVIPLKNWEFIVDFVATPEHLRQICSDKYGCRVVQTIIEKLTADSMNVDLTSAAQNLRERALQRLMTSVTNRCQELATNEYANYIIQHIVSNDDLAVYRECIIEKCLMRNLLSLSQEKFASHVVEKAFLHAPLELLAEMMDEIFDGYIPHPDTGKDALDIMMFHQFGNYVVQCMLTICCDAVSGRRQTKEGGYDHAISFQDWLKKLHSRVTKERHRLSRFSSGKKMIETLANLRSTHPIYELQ
- T1 sequence 2: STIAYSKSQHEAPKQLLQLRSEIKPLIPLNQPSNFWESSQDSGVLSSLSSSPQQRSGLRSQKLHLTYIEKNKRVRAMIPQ
- Method: EMSA; 10 uM LST-1 19-98; apparent Kd; EMSA: 5 nM RNA, 10 mM HEPES pH 7.4, 75 mM NaCl, 0.01% Tween 20, 0.1 mg/ml BSA, 0.1 mg/ml yeast tRNA, 2 mM DTT, 4 C overnight
- Condition Label: protein: recombinant;recombinant; tags: His-SUMO, removed by TEV;His6-SUMO removed by Ulp1; GST removed by TEV when coexpressed; chain copies: 2;1; label: 3'-Cy5
Readout Label: Kd (nM)

>>> obs_value("AUCAUGUGCCAUACAUCAUGUUGCCAUUU (ssRNA) [gld-1 FBEa-FBEa* (EMSA)]")
107
